experimental_system: human MET, cell-surface expressed (human, UniProt P08581 25-1390)
Sequence (P08581 25-1390): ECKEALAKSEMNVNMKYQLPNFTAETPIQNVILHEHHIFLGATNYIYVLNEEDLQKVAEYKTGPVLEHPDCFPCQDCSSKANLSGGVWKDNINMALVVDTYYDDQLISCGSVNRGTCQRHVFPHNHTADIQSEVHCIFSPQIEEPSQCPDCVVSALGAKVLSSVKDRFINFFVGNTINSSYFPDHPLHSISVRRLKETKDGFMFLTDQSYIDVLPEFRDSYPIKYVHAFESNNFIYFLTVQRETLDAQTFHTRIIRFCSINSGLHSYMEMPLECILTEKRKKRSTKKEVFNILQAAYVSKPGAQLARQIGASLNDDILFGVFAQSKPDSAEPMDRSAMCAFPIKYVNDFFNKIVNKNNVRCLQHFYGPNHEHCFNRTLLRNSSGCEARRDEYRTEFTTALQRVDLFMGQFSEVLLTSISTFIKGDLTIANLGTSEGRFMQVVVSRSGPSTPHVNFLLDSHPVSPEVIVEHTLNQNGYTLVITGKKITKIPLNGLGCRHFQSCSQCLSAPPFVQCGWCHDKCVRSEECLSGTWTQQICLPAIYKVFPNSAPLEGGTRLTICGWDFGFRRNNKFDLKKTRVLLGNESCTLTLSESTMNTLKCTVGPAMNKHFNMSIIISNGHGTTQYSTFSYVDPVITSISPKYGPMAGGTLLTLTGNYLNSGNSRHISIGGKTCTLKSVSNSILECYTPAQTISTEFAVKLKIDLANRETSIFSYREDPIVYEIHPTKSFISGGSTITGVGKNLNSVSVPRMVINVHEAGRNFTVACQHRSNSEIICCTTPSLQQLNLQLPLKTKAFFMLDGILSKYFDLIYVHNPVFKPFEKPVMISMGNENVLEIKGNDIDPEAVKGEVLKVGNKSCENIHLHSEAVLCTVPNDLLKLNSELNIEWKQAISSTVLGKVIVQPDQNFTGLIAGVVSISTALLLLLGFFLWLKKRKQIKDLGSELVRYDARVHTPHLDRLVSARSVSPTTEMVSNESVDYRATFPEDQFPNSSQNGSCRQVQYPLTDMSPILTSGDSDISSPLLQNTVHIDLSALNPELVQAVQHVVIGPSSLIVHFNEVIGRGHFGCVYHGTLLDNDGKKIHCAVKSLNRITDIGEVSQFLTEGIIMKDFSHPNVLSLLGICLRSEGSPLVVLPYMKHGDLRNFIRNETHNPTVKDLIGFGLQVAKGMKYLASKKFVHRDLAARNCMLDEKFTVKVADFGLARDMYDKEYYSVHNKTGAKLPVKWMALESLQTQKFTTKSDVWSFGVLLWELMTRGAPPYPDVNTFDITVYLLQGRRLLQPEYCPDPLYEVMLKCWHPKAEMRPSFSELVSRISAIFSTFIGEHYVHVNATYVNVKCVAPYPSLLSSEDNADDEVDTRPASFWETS
test: cell-based or functional assay
quantity_measured: percent inhibition of MET phosphorylation in SNU-5 cells (%)
Output spec: scalar in %, unitless text.

Solved entries (count: 2):
binder: Ab238C-IgG2 (antibody, V domains shown) VH: QVTLKESGPGILQPSQTLSLTCTFSGFSLSTYGMGVAWIRQPSGKDLEWLANIWWDDVNYSNPSLKNRLTISKDTSNNQVFLQITNVDTAETATYYCARIGTSHIVDAWGQGASVTVSA VL: DIRMTQSPASLSASLGETVNIECLASEDIYSDLAWYQQKPGKSPQLLIYNANTLQNGVPSVFSGSGSGTQYSLKINNLHSEDVATYFCQQYNNYPPTFGGGTKLEIKR
value: 24

binder: Ab236C-IgG2 (antibody, V domains shown) VH: QAQLQQSGAELMKPGASVKISCKATGYIFSSYWIEWVKQRPGHGLEWIGEILPGSDFIKYSEKFKGKATFTADTSSNTAYMQLSNLTSEDSAVYYCARPSTVPPDCWGQGTTLTVSA VL: QIVLTQSPAIMSASPGEKVTMTCSASSSVSYMFWYQQKPGSSPRLLIYDTSDLASGVPVRFSGSGSGTSYSLTISRMEAEDAATYYCQQWSNYPYTFGGGTKLEIKR
value: 75

Below: the item to evaluate.
So what's the measured percent inhibition of MET phosphorylation in SNU-5 cells for this one? Ab239C (antibody, human IgG1, V domains shown) VH: EVQLVESGGGLVQPGRSLKLSCAASGFSFTDCYMAWVRQAPTKGLEWVASISSDGGGTYYRDSVKGRFTISRDNARSSLYLEMDSLRSEDTATYYCTTERYYDGTYYGYWYFDFWGPGTMVTVSA VL: GQFTLTQPKSVSGSLRSTITIPCVRSSGDIGDRYVSWYQQRLGRPPLNVIYAADQRPSEVSDRFSGSIDSSSNSASLTITDLQMDDEADYFCQSYDSNIDIVFGGGTKLEIKR
33
